- Tested on: Mycobacterium tuberculosis
- Test Summary: Antimycobacterial activity against rifampicin and isoniazid-resistant Mycobacterium tuberculosis 43 assessed as growth inhibition
- Format: functional
Attribute Measured: MIC (µM)

In [3]: df
Out[3]:
                            compound_smiles                 target_desc  value_units  bound_sign  value_observed
0  CC1(C)[C@@H]2CC[C@@]1([C@@H](O)CN1CCOCC1)C(=O)C2  Mycobacterium tuberculosis           µM           >            18.7
1  CC1(C)[C@@H]2CC[C@@]1([C@@H](O)CN1CCN(c3ccc(F)cc3)CC1)C(=O)C2  Mycobacterium tuberculosis           µM           =            0.55
2  CC1(C)[C@@H]2CC[C@@]1([C@@H](O)CN1CCCCC1)C(=O)C2  Mycobacterium tuberculosis           µM           =            18.9
3  CC1(C)[C@@H]2CC[C@@]1([C@H](O)CN1CCN(c3ccc(Cl)cc3)CC1)C(=O)C2  Mycobacterium tuberculosis           µM           =            0.27
4  CC1(C)[C@@H]2CC[C@@]1([C@H](O)CN1CCN(c3ccc(F)cc3)CC1)C(=O)C2  Mycobacterium tuberculosis           µM           =            0.55
5  CC1CCN(C[C@@H](O)[C@]23CC[C@H](CC2=O)C3(C)C)CC1  Mycobacterium tuberculosis           µM           =            0.72
